- Test protocol: chemical genetic growth profiling, strain panel (AID 1159580);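 also: tested at 20 µM; growth read once vehicle control cultures reached saturation at 30 °C; 1 = growth at the plate median or of vehicle wells; lower values mean less growth of the strain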
- Reported conditions: S. cerevisiae deletion strains, growth OD, locus YER123W, strain YCK3, hits give low values
Hit rate of the full screen: of about 5,500 compounds, about 2,000 (36%) were called active. Another 18% or so got no clear call; they are omitted. Some of the results follow.
Measured endpoint: normalized growth
Answer field: number only, no words.

// known answers, use as guide
N#CC(C#N)=NNc1ccc(-n2ccc(C(F)(F)F)n2)cc1 : 0.208
Cc1nc(C(F)(F)F)ccc1-c1nnc(SC(=O)c2ccc(Cl)cc2)o1 : 0.49

# input for lookup
Can you share its normalized growth? I mean this compound: Cc1oc(-c2ccc(Cl)cc2)cc1C(=O)N1CCN(c2ccc(C(F)(F)F)cn2)CC1 0.926

---

- Test protocol: chemical genetic growth profiling, strain panel (AID 1159580)
- Reported conditions: S. cerevisiae deletion strains, growth OD, locus YDR137W, strain rgp1
The whole screen tested about 5,500 compounds, of which about 2,000 (36%) were called active. Roughly 18% stayed inconclusive and do not appear here. Rule as the data show it: active = normalized growth mostly below about 0.91 (no sharp cut-off); inconclusive = no clear call, values can overlap the other calls; inactive = mostly above about 0.92. The list shows a part of the results.
Form entry, call: pick from YES (active), NO (inactive)

CN1CCN(C(c2ccccc2)c2ccccc2)CC1 : NO
C[C@]12C=CC(=O)C=C1CCC1C2CC[C@]2(C)C(=O)CCC12 (stereo partly specified) : NO
CCC(=O)O[C@H]1CCC2C3CCc4cc(O)ccc4C3CC[C@@]21C (stereo partly specified) : NO
COC(=O)C1=CO[C@@H](O[C@@H]2O[C@H](CO)[C@@H](O)[C@H](O)[C@H]2O)[C@@H]2[C@@H](C)[C@@H](O)C[C@H]12 : NO
COc1cc(O)c(C(=O)O)c(O)c1 : NO

# outcome recorded in this test, key = Cc1cc(O)c2c(c1O)C(=O)c1c(O)cc(C)c(O)c1C2=O NO

---

- Test protocol: chemical genetic growth profiling, strain panel (AID 1159580)
- Reported conditions: S. cerevisiae deletion strains, growth OD, locus YFR003C, strain YPI1, hits give low values
Screen size: about 5,500 compounds; about 2,000 (36%) were called active. Not shown: some 18% with an inconclusive outcome. This is one part of the list.
Measured endpoint: normalized growth
Response field accepts a number only; no unit should be typed.

COc1ccc(/C(C#N)=C2C=C/C(=N/O)C(Cl)=C\2)cc1 : 0.97
Fc1ccc(Nc2nc(-c3ccc(F)c(F)c3)cs2)c(F)c1 : 0.105

Entry CSC(SC)=C(C#N)C(=O)c1ccccc1Cl has what normalized growth? 0.915

Fill blank: measured normalized growth of the molecule CCOC(=O)C1C(c2ccc(Br)cc2)C(C(=O)OCC)C(O)(C(F)(F)F)NC1(O)C(F)(F)F (stereo not drawn) is ____. 0.995

Consider the molecule O=S(=O)(Nc1ccc(-n2nc(C(F)(F)F)cc2-c2cccs2)cc1)c1ccc(F)cc1 and give its measured normalized growth. 0.99

normalized growth for FC(F)(F)c1ccc(C2Sc3ccccc3N=C3c4ccccc4CC32)cc1 (stereo not drawn) ? 1.02

Suppose we examine the molecule COc1ccc(-c2cc(NS(=O)(=O)c3cccc(F)c3)n(-c3ccc(Cl)c(Cl)c3)n2)cc1 ; what normalized growth value has been reported? 0.98

Name the recorded normalized growth for O=C(Nc1ccc(Cl)cc1)c1csc([N+](=O)[O-])c1 . 0.924

---

- Test protocol: chemical genetic growth profiling, strain panel (AID 1159580)
- Reported conditions: S. cerevisiae deletion strains, growth OD, locus YLR113W, strain HOG1, hits give low values
Hit rate of the full screen: of about 5,500 compounds, about 2,000 (36%) were called active. Not shown: some 18% with an inconclusive outcome. Some of the results follow.
Measured endpoint: normalized growth
Answer using only a numeral; do not append any unit.

Return reported normalized growth; argument: c1ccc2c(c1)[nH]c1cnccc12 1.03

Need normalized growth, item Cc1cc(C)nc(NS(=O)(=O)c2ccc(N)cc2)n1 0.975

For the compound Cc1c(Cl)cccc1N=C1SCC(=O)N1Cc1ccco1 , what normalized growth is on record? 0.809

I'd like to know its normalized growth. The compound in question is COc1ccc2[nH]cc(CCNC(C)=O)c2c1 1

So what does the record say about normalized growth for CCCCCc1ccc(S(=O)(=O)Nc2ncc(C)cc2Br)cc1 ? 0.674

---

- Test protocol: chemical genetic growth profiling, strain panel (AID 1159580)
- Reported conditions: S. cerevisiae deletion strains, growth OD, locus YJL157C, strain FAR1, hits give low values
In all, about 5,500 compounds went through this assay and about 2,000 (36%) were called active. Another 18% or so got no clear call; they are omitted. The list shows a part of the results.
normalized growth reference

Recorded normalized growth for O=C1CSC(=Nc2cc(Cl)cc(Cl)c2)N1Cc1cccnc1 , please? 0.931 (inactive)

What normalized growth value was documented for this molecule, COc1cc(OC)cc(/C(N)=N\O)c1 ? 0.983 (inactive)

# lookup: normalized growth of O=C1OC(Nc2ccccc2SCc2ccccc2Cl)c2ccccc21 (stereo not drawn) 0.905 (inactive)

Report normalized growth for FC(F)(F)c1ccc(C2Sc3ccccc3N=C3c4ccccc4CC32)cc1 (stereo not drawn) please. 1.02 (inactive)

// lookup normalized growth for Cc1nc([N+](=O)[O-])cn1CC(=O)c1ccc(Cl)cc1 0.922 (inactive)

Report normalized growth for O=C(Nc1ccc(OC(F)(F)F)cc1)Nc1cncc(C(F)(F)F)c1 please. 0.923 (inactive)

Entry Cc1c(C(=O)NCCNc2ccc(C(F)(F)F)cc2[N+](=O)[O-])cnn1-c1ccc(F)cc1 has what normalized growth? 0.943 (inactive)

I have this molecule here, Cc1c(NCN2C(=O)CCC2=O)cc2c(c1[N+](=O)[O-])C(C)(C)CC2(C)C , and I need its recorded normalized growth. 0.92 (inactive)

# input molecule: CN(C)c1nc(=S)ss1 ; wanted: its normalized growth 0.199 (active)

Quick one: normalized growth for COc1cccc(C(=O)C(C#N)=C(SC)SC)c1 ? 0.37 (active)

normalized growth lookup needed for COC(=O)c1ccc(Oc2c(C(F)(F)F)oc3cc(O)ccc3c2=O)cc1 , thanks. 0.936 (inactive)

State the recorded normalized growth for this entry: O=C(c1ccc(Cl)cc1)N1CCN(c2ccc(C(F)(F)F)cn2)CC1 0.979 (inactive)

Which normalized growth is reported for this molecule? Oc1ccc(-n2nnnc2SCc2ccc(OC(F)(F)F)cc2)cc1 0.832 (inactive)

---

- Test protocol: chemical genetic growth profiling, strain panel (AID 1159580);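 also: tested at 20 µM; growth read once vehicle control cultures reached saturation at 30 °C; 1 = growth at the plate median or of vehicle wells; lower values mean less growth of the strain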
- Reported conditions: S. cerevisiae deletion strains, growth OD, locus YKL160W, strain elf1
About 2,000 (36%) of roughly 5,500 compounds were called active. Not shown: some 18% with an inconclusive outcome. No stated cut-off is given here; in the data, active means normalized growth mostly below about 0.91 (no sharp cut-off); inconclusive means no clear call, values can overlap the other calls; inactive means mostly above about 0.92. The list shows a part of the results.
Output constraint: value belongs to Yes = active, No = inactive

The following compounds have reported results that may help.
O=C(/C=C/C(=O)Oc1ccccc1C(=O)O)Oc1ccccc1C(=O)O : No
O=c1c(-c2ccc3c(c2)OCO3)coc2cc(O)ccc12 : No
N#Cc1ccc2c(c1)N(CCCN1CCC(O)CC1)c1ccccc1S2 : No

How was CC1=C(C(=O)O)N2C(=O)[C@@H](NC(=O)[C@H](N)C3=CCC=CC3)C2SC1 (some centres undefined) classified in this test? No

# outcome recorded in this test, key = C=C1CC2C(CCC3(C)C(=O)CCC23)C2(C)C=CC(=O)C=C12 (centres undefined) No

Look up the recorded call for FC(F)(F)COCC(F)(F)F in this test. No

Could you check what this test reported for CN1Cc2c(N)cccc2C(c2ccccc2)C1 (centres undefined) ? No

Can you look up the reported call for O=c1[nH]cnc2nc[nH]c12 for me? No

---

- Test protocol: chemical genetic growth profiling, strain panel (AID 1159580);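 also: tested at 20 µM; growth read once vehicle control cultures reached saturation at 30 °C; 1 = growth at the plate median or of vehicle wells; lower values mean less growth of the strain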
- Reported conditions: S. cerevisiae deletion strains, growth OD, locus YGL240W, strain doc1, hits give low values
The whole screen tested about 5,500 compounds, of which about 2,000 (36%) were called active. Roughly 18% stayed inconclusive and do not appear here. The list shows a part of the results.
API: label(entry) gives rule met if the entry's normalized growth is strictly smaller than 1; on equality or larger values it gives rule not met.

Strictly below 1 in normalized growth? COC(=O)C[C@H]1C(C)(C)[C@@H](OC(C)=O)[C@@H]2CC3C4CC(=O)O[C@@H](c5ccoc5)[C@]4(C)CCC3[C@@]1(C)C2=O (stereo not given in full) rule not met

Decide: normalized growth of CCCc1nc(C(C)(C)O)c(C(=O)OCc2oc(=O)oc2C)n1Cc1ccc(-c2ccccc2-c2nn[nH]n2)cc1 strictly below 1? rule met

---

- Test protocol: chemical genetic growth profiling, strain panel (AID 1159580);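 also: tested at 20 µM; growth read once vehicle control cultures reached saturation at 30 °C; 1 = growth at the plate median or of vehicle wells; lower values mean less growth of the strain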
- Reported conditions: S. cerevisiae deletion strains, growth OD, locus YPL256C, strain CLN2
The campaign covered roughly 5,500 compounds. About 2,000 (36%) were called active. About 18% were inconclusive and are not listed. Rule as the data show it: active = normalized growth mostly below about 0.91 (no sharp cut-off); inconclusive = no clear call, values can overlap the other calls; inactive = mostly above about 0.92. The list shows a part of the results.
Parameter call: string, one of active, inactive

Cc1cc(O)c2c(c1O)C(=O)c1c(O)cc(C)c(O)c1C2=O : inactive
Cc1c(N(C)CS(=O)(=O)O)c(=O)n(-c2ccccc2)n1C : inactive

Recorded call for C[N+]1(C)C2CC[C@H]1CC(OC(=O)C(O)c1ccccc1)C2 (stereo partly specified) ? inactive

I'd appreciate the recorded outcome for CCCCC(=O)N(Cc1ccc(-c2ccccc2-c2nn[nH]n2)cc1)[C@H](C(=O)O)C(C)C from this test. inactive

Kindly provide the recorded test outcome for the following compound: CSc1nc(Sc2n[nH]c(-c3ccccc3)n2)cc(Sc2n[nH]c(-c3ccccc3)n2)n1 inactive

Called result for C[C@]12CCC3C(CC[C@H]4CC(=O)CC[C@]34C)C1CCC2=O (stereo partly specified) inactive

// return assay outcome for C(=NC(N=Cc1ccccc1)c1ccccc1)c1ccccc1 (stereo unspecified) inactive
